FYI, the data here is from the Human Domainome abundance scans (Beltran et al. 2025).

B1: Far upstream element-binding protein 1, residues 98 to 169; numbered along this chain, Q96AE4 (parent)
chain: RSVMTEEYKVPDGMVGFIIGRGGEQISRIQQESGCKIQIAPDSGGLPERSCMLTGTPESVQSAKRLLDQIVE

Variants of: B1
Assay: abundance fitness (aPCA) (normalised: wild type 0, dead -1); higher = more abundant; growth selection in yeast, the domain comes from the species named
Settings: Homo sapiens
quantity: abundance fitness
Please state the value as a number alone, without comment.

residue-string | abundance fitness
RSVMTEEYKVPDGMVGFIIGRGGEQISRIQQESGCKIQIAPDSGGLPERSCMLTGTPESVQSADRLLDQIVE [K64D] | -0.634
RSVMTEEYKVPDGMVGFIIGRGGEQISRIQQESGCKIQIAPDSGGLPERSCMLTGTPESVQSAKRPLDQIVE [L66P] | -0.684
RSVMTEEYKVPDGMVGFIIGRGGEQISRIQEESGCKIQIAPDSGGLPERSCMLTGTPESVQSAKRLLDQIVE [Q31E] | 0.028
RSVMTEEYKVPDGMHGFIIGRGGEQISRIQQESGCKIQIAPDSGGLPERSCMLTGTPESVQSAKRLLDQIVE [V15H] | -0.135
RSVMTEEYKVPDGMVGFIIGRGGEQISRIQQESGCKIQICPDSGGLPERSCMLTGTPESVQSAKRLLDQIVE [A40C] | -0.023
RSVMTEEYKVPDGMVGFWIGRGGEQISRIQQESGCKIQIAPDSGGLPERSCMLTGTPESVQSAKRLLDQIVE [I18W] | -0.108
RSVMTEEYKVPDGMVGFIIGRGGEQISRIQQESGCWIQIAPDSGGLPERSCMLTGTPESVQSAKRLLDQIVE [K36W] | -0.129
RSVMTEEYKVPDGMVGFIIGRGGEQISRIQQESGCKIQIAPDSGGLPEESCMLTGTPESVQSAKRLLDQIVE [R49E] | -0.188

Given the variant RSVMTEEYKVPDGMVGFIIGRGGEQISRIQQESGCKIQIAPDSGGLPERSCMLTGTSESVQSAKRLLDQIVE [P57S] , what is its reported abundance fitness?
-0.027

Param item: RSVMTEEYKVPDGMVGFIIGRGGEQIHRIQQESGCKIQIAPDSGGLPERSCMLTGTPESVQSAKRLLDQIVE [S27H]
-0.012

Param item: RSVMTEEYKVPDGMVGFIIGRGGEQISRIQQESGCKIQIAPDSGGLPERSCMLTFTPESVQSAKRLLDQIVE [G55F]
-1.41

Param item: RSVMTEEYKVPDGMVGFIIGRGGEQISRIQQESGCKIQIAPDSGGLPERSCMLTGTPESVQSAKRILDQIVE [L66I]
-0.045

Param item: RSVMTEEYKVPDGMVGFIIGRGGEQISRIQQESGCKIQIAPDSGILPERSCMLTGTPESVQSAKRLLDQIVE [G45I]
-0.14

Param item: RSVMTEEYKVPDGMVGFIIGRGGEQISRIQQESGCIIQIAPDSGGLPERSCMLTGTPESVQSAKRLLDQIVE [K36I]
-0.078

Param item: RSVMTEEYKVPDGMVGFIIGRGGEQISRIQQESGCKIQIAPDSGGLPERSCMLTGTPESVQSAKRLLDQHVE [I70H]
-0.062

Param item: RSVMTEEYKVPDGHVGFIIGRGGEQISRIQQESGCKIQIAPDSGGLPERSCMLTGTPESVQSAKRLLDQIVE [M14H]
-0.12

Param item: RSVMTEEYKVPDGMVGFIIGRGGEQISRIQQESGCKIQIAPDCGGLPERSCMLTGTPESVQSAKRLLDQIVE [S43C]
-0.131

Param item: RSVMTEEYKVPDGMVGFIIGRGGEQISRIQQESGCKIQIAPDSGGLPERSCMLTGSPESVQSAKRLLDQIVE [T56S]
-0.006

Param item: RSVMTEEYKVPDGMVGFIIGRGGEQISRIQQESGCKIQIAPDSGGLPERSCMLTVTPESVQSAKRLLDQIVE [G55V]
-1.31

Param item: RSVMTEEYKVPDGMVGFIIGRGGEQISRIQQESGCKIQIAPDSGGLPERSCMLTGTPESVQSAKRLLDQIME [V71M]
-0.088

Param item: RSVMTEEYKVPDGMVGFAIGRGGEQISRIQQESGCKIQIAPDSGGLPERSCMLTGTPESVQSAKRLLDQIVE [I18A]
-0.189
